Please go through the items and note down their SPR normalised on Mw at 1 mM.
Biological target: Recombinant Cx43CT (carboxyl terminal domain of connexin43, sequence 255-382 of rCx43 preceded by GPLG) (rat, UniProt P08050)
Sequence (P08050 other isoform, or with tags, fused parts or gaps limits assumed): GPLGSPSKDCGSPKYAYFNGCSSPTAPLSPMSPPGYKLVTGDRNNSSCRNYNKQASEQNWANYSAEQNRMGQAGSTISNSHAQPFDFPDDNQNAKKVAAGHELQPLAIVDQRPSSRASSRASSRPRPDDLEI
Assay: SPR, Cx43CT immobilised, peptide at 1 mM, response normalised on Mw

So what's the measured SPR normalised on Mw at 1 mM for this one? Ac-RRNYSHSRRNY-NH2 [Compound 2507]
45.4 (SPRrespons*100)/Mw

So what's the measured SPR normalised on Mw at 1 mM for this one? Ac-RRNYGGSAVPFYSHRRNY-NH2 [Compound 2510]
53 (SPRrespons*100)/Mw

So what's the measured SPR normalised on Mw at 1 mM for this one? Ac-RRNYGGGRRNY-NH2 [Compound 2509]
34 (SPRrespons*100)/Mw

So what's the measured SPR normalised on Mw at 1 mM for this one? Ac-RRNYGGGSAVPFYRRNY-NH2 [Compound 2508]
49.4 (SPRrespons*100)/Mw
